// provenance: PubChem BioAssay AID2060885

- Test system: NCI-H23 complex spheroids with HUVEC/MSC, viability
- protocol-text: Anticancer human tumor NCI-H23 cell line growth inhibition [RAS];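 note: spheroids exposed to compound for 7 days; 100% = DMSO vehicle control viability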
- assay-conditions: second compound 10 µM; first compound 0.0316 µM; stronger effect = lower value

compound	value-units	viability, T/C
CC(=O)OC12COC1CC(O)C1(C)C(=O)C(O)C3=C(C)C(OC(=O)C(O)C(NC(=O)OC(C)(C)C)c4ccccc4)CC(O)(C(OC(=O)c4ccccc4)C21)C3(C)C (configuration not stated) + C#Cc1c(F)ccc2cc(O)cc(-c3ncc4c(N5CC6CCC(C5)N6)nc(OCC56CCCN5CC(F)C6)nc4c3F)c12	%	17.9
CC(Nc1ccc2c(c1)OCCn1cc(N3C(=O)OCC3C(F)F)nc1-2)C(N)=O (configuration not stated) + C#Cc1c(F)ccc2cc(O)cc(-c3ncc4c(N5CC6CCC(C5)N6)nc(OCC56CCCN5CC(F)C6)nc4c3F)c12	%	36.6
